System: Intestine
experiment: Drug uptake in ICR mouse intestine assessed per organ at 370 kBq/100 ul, iv at 60 mins by gamma-counting analysis
Format: ADME, organism-based
assay_setup: in vivo, 1 h
value_type: Drug uptake (%ID)

1. CNc1ccc(-c2nc3ccc(OCCOCCOCC[18F])cc3s2)cn1
2. CNc1ccc(-c2nc3cc(OCC[18F])ccc3o2)cn1
IN: Between the entries labeled 1 and 2 , whose measured Drug uptake is lower? Identify your selection by its label.
OUT: 1

---

experiment: Displacement of [125I]-IMPY from amyloid beta (1 to 42) fibrils after 2 hrs by gamma-counting analysis
value_type: Ki (nM)

IN: Entry under review: `CNc1ccc(-c2nc3cc(OCCOCCOCC[18F])ccc3o2)cn1` . Reported Ki?
OUT: 76.9

IN: Next entry: `CN(C)c1ccc(-c2nc3ccc(OCCOCCOCC[18F])cc3s2)cn1`
OUT: 5.8

IN: Next entry: `CNc1ccc(-c2nc3cc(OCCOCCOCCF)ccc3o2)cn1`
OUT: 76.9

IN: Next entry: `CN(C)c1ccc(-c2nc3ccc(OCCF)cc3s2)cn1`
OUT: 2.7

IN: Next entry: `CNc1ccc(/C=C/c2ccc(OCCOCCOCC[18F])nc2)cc1`
OUT: 2.87

a. CN(C)c1ccc(-c2nc3cc(OCCF)ccc3o2)cn1
b. CNc1ccc(-c2nc3ccc(OCCOCCOCCF)cc3s2)cn1
IN: Between the entries labeled a and b , whose measured Ki is lower? Identify your selection by its label.
OUT: a
(a: 2.7 nM, b: 9.3 nM)

A. CN(C)c1ccc(-c2nc3ccc(OCCOCCF)cc3s2)cn1
B. CNc1ccc(/C=C/c2ccc(OCCOCCOCC[18F])cc2)cc1
IN: Hi there! Just curious which has the higher Ki between A and B . Identify your selection by its label.
OUT: B
(B: 6.7 nM, A: 4.6 nM)

P. CN(C)c1ccc(-c2nc3ccc(OCCOCCOCCF)cc3s2)cn1
Q. CN(C)c1ccc(-c2nc3cc(OCCOCCOCCF)ccc3o2)cn1
IN: Hi there! Just curious which has the higher Ki between P and Q . Identify your selection by its label.
OUT: Q
(Q: 9.9 nM, P: 5.8 nM)

a. CNc1ccc(-c2nc3ccc(OCCF)cc3s2)cn1
b. CN(C)c1ccc(-c2nc3cc(OCC[18F])ccc3o2)cn1
IN: Between the entries labeled a and b , whose measured Ki is lower? Identify your selection by its label.
OUT: b
(b: 2.7 nM, a: 10.1 nM)
